meta.source: ChEMBL document CHEMBL1136889

- Protocol text: Cytotoxicity against human HuH7 cells assessed as [3H]thymidine incorporation
- Type: cell-based, Huh-7
Parameter: CC50

Consider the reported CC50 for these compounds:
CC(C)OC(=O)[C@H](C)NP(=O)(OC[C@@]1(N=[N+]=[N-])O[C@@H](n2cnc3c(=O)[nH]cnc32)[C@H](O)[C@@H]1O)Oc1ccccc1 (stereo partly drawn)    > 100 µM
C[C@H](NP(=O)(OC[C@@]1(N=[N+]=[N-])O[C@@H](n2cnc3c(=O)[nH]cnc32)[C@H](O)[C@@H]1O)Oc1ccccc1)C(=O)OC(C)(C)C (stereo partly drawn)    > 100 µM

Kindly review the next compound as well.
Using the record for CCOC(=O)[C@H](C)NP(=O)(OC[C@@]1(N=[N+]=[N-])O[C@@H](n2cnc3c(=O)[nH]cnc32)[C@H](O)[C@@H]1O)Oc1ccccc1 (stereo partly drawn) , state its measured CC50.
> 100 µM
